Values were extracted from patent US7575930B2.

Reported plasma concentration by item:
method-summary: Monitoring of the plasma concentration of the main oligosaccharides of a VLMWH in human volunteers (plasma filtration + anion-exchange HPLC)
Assay type: in vivo
applied-conditions: 3 h after administration of VLMWH (2500 Da) 1.4 mg/kg
Value expressed in nM; do not type the unit.

See these solved cases before continuing.
>  <compound>
O=C(O)C1=CC(O)C(OS(=O)(=O)O)C(OC2C(COS(=O)(=O)O)OC(OC3C(C(=O)O)OC(OC4C(COS(=O)(=O)O)OC(OC5C(C(=O)O)OC(OC6C(COS(=O)(=O)O)OC(O)C(NS(=O)(=O)O)C6O)C(OS(=O)(=O)O)C5O)C(NS(=O)(=O)O)C4O)C(OS(=O)(=O)O)C3O)C(NS(=O)(=O)O)C2O)O1 (centres unmarked) [ΔIsIsIs]

>  <plasma concentration (nM)>
20

$$$$
>  <compound>
O=C(O)C1=CC(O)C(OS(=O)(=O)O)C(OC2C(COS(=O)(=O)O)OC(O)C(NS(=O)(=O)O)C2O)O1 (centres unmarked) [ΔIs]

>  <plasma concentration (nM)>
100

$$$$
>  <compound>
CC(=O)NC1C(OC2C(C(=O)O)OC(OC3C(COS(=O)(=O)O)OC(OC4C(C(=O)O)OC(OC5C(COS(=O)(=O)O)OC(OC6C(C(=O)O)OC(OC7C(COS(=O)(=O)O)OC(O)C(NS(=O)(=O)O)C7O)C(OS(=O)(=O)O)C6O)C(NS(=O)(=O)O)C5O)C(OS(=O)(=O)O)C4O)C(NS(=O)(=O)O)C3OS(=O)(=O)O)C(O)C2O)OC(COS(=O)(=O)O)C(OC2OC(C(=O)O)=CC(O)C2O)C1O (centres unmarked) [ΔIIaIIsIsIs]

>  <plasma concentration (nM)>
30

$$$$

Lab book: plasma concentration of CC(=O)NC1C(OC2C(C(=O)O)OC(OC3C(COS(=O)(=O)O)OC(OC4C(C(=O)O)OC(OC5C(COS(=O)(=O)O)OC(O)C(NS(=O)(=O)O)C5O)C(OS(=O)(=O)O)C4O)C(NS(=O)(=O)O)C3OS(=O)(=O)O)C(O)C2O)OC(COS(=O)(=O)O)C(OC2OC(C(=O)O)=CC(O)C2O)C1O (centres unmarked) [ΔIIaIIsIs] noted as 80

Lab book: plasma concentration of O=C(O)C1=CC(O)C(OS(=O)(=O)O)C(OC2C(COS(=O)(=O)O)OC(OC3C(C(=O)O)OC(OC4C(COS(=O)(=O)O)OC(O)C(NS(=O)(=O)O)C4O)C(OS(=O)(=O)O)C3O)C(NS(=O)(=O)O)C2O)O1 (centres unmarked) [ΔIsIs] noted as 90
